Each entry below lists one item and its recorded TGI value.
# System: NCI/ADR-RES ovarian
# measurement-description: NCI tumour cell line growth inhibition, 48 h

Recorded TGI, per entry:
Query: Entry under review: COc1ccc2c(CNCCCCO)cc3cc4c(cc3c2c1)OCO4 . Reported TGI?
Reply: 8.12 µM

Query: GET /values?readout=TGI&item= CCCCCCc1cc(C=O)sc1-c1ccc(-c2sc(-c3ccc(-c4ccc(-c5cc(CCCCCC)c(-c6ccc(-c7sc(C=O)cc7CCCCCC)s6)s5)s4)s3)cc2CCCCCC)s1
Reply: > 100 µM

Query: # query: TGI of entry CCOc1ccc2c(c1)/C(=C\C=C\C1CC(C)C3CC(OCC)CCC3N1CC)CC(C)N2CC (stereo not given)
Reply: > 100 µM

Query: TGI lookup needed for O=C1NC(=NCCc2ccccc2Cl)S/C1=C\c1ccc2ncccc2c1 , thanks.
Reply: > 25 µM

Query: Look at this compound and give its reported TGI. O=C(O)CCCN1CCCCC1
Reply: > 100 µM

Query: If you can, please state the reported TGI value of COc1ccc(NS(=O)C2CCCCC2)cc1 (stereo not given) .
Reply: > 100 µM

Further cases:
Query: Any idea what TGI was measured for COC(=O)c1ccc(/C=C/C2=CC(=O)C=CC2=O)cc1 ?
Reply: 97.9 µM

Query: TGI for Cn1c(=O)c(Cc2ccc(F)cc2F)cc2cnc(NC3CCOCC3)nc21 ?
Reply: > 25 µM

Query: Entry under review: Oc1ccc2ccccc2c1/C=N\Nc1ccccn1 . Reported TGI?
Reply: 33.3 µM

Query: Look at this compound and give its reported TGI. Cc1ccccc1NC(=O)NC(CC(N)=O)c1ccc2c(c1)nc(-c1cccc(Oc3ccc(C(C)(C)C)cc3)c1)n2CCCN1CCCCC1C (stereo not given)
Reply: > 85.9 µM

Query: Fill in the blank: the reported TGI of COC(=O)c1c(-c2ccccc2)csc1NC(=O)c1c(-c2ccccc2)noc1C is ____.
Reply: > 100 µM

Query: Entry CC(C)(C)NCC(O)COc1cccc2[nH]c(C#N)cc12 (stereo not given) : reported TGI = ?
Reply: > 100 µM

Query: GET /values?readout=TGI&item= O=Cc1ccc(C(F)(F)F)cc1.[C-]#[O+].[C-]#[O+].[C-]#[O+].[Cr]
Reply: > 100 µM

Query: GET /values?readout=TGI&item= Cc1nc2c(=O)[nH]c(=O)nc-2n(CCO)c1C
Reply: > 100 µM
